All values here come from ChEMBL document CHEMBL1157620.

pIC50: −log10 of the molar value.
Data export: pIC50 values recorded with Cytochrome P450 2D6 (Homo sapiens).
Sequence (P10635 whole entry): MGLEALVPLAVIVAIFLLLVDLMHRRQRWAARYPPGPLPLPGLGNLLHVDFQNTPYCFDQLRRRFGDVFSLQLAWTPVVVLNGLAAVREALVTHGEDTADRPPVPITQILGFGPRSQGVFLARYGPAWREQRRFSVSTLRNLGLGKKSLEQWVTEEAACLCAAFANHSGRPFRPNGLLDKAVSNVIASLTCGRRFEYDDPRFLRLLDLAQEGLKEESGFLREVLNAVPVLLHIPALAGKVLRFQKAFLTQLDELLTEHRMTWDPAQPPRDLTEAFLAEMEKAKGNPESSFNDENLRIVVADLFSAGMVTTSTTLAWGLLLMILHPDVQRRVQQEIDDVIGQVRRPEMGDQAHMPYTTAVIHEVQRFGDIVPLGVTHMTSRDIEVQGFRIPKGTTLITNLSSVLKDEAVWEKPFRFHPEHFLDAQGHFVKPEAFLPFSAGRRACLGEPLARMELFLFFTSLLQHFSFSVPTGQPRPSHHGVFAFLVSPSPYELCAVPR

molecule | test.readout | val
CCOCC[C@]1(c2ccc(Cl)c(Cl)c2)[C@@H]2CNC[C@@H]21 | pIC50 | > 7.00
CC(C)OC[C@@H]1[C@H]2CNC[C@]21c1ccc(Cl)c(Cl)c1 (stereo in doubt) | pIC50 | < 5.10

Lab note: molecule Clc1ccc([C@@]2(COC3CCC3)[C@@H]3CNC[C@@H]32)cc1Cl tested on Cytochrome P450 2D6 (Homo sapiens); recorded pIC50 was < 5.00

---

Here, each record is paired with measured Ki data.
Molecular target: Sodium-dependent noradrenaline transporter (Homo sapiens, UniProt P23975)
Sequence (P23975 whole entry): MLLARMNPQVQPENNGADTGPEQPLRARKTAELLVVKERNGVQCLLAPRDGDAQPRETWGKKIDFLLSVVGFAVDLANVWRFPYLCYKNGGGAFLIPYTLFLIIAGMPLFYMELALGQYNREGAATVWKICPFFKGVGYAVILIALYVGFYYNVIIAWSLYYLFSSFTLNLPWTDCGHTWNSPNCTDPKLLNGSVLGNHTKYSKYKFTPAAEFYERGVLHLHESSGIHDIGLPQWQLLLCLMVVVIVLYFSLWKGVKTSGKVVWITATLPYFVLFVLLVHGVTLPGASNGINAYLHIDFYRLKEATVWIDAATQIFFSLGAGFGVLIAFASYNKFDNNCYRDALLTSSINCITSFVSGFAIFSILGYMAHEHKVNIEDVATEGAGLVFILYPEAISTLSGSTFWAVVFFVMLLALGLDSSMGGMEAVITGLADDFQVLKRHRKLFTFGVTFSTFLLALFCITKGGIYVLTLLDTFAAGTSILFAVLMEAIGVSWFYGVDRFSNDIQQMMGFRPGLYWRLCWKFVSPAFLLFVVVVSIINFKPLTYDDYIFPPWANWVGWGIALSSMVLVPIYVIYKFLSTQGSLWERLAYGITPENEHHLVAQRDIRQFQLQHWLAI
Assay: Displacement of [3H]nisoxetine from human recombinant NET expressed in BacMam virus-transduced cells by scintillation proximity assay
Type: cell-based
Reply numerically in nM, unit not repeated.

molecule | test.readout | unit.text | val
Clc1ccc([C@@]23CNC[C@@H]2[C@H]3COC2CCCC2)cc1Cl (stereo in doubt) | Ki | nM | 12.6
FC(F)(F)COC[C@H]1[C@@H]2CNC[C@@]21c1ccc(Cl)c(Cl)c1 (stereo in doubt) | Ki | nM | 3.98

Reported Ki of CC(C)OC[C@H]1[C@@H]2CNC[C@@]21c1ccc(Cl)c(Cl)c1 (stereo in doubt) : 0.398

// field: Ki; key: CCC(C)OC[C@]1(c2ccc(Cl)c(Cl)c2)[C@@H]2CNC[C@@H]21 (mixture of isomers) ; value = 2

Data point: CSC[C@@H]1[C@H]2CNC[C@]21c1ccc(Cl)c(Cl)c1 (stereo in doubt) ; Ki = 316

---

Molecular target: UniProt:P31645
Sequence (P31645 whole entry): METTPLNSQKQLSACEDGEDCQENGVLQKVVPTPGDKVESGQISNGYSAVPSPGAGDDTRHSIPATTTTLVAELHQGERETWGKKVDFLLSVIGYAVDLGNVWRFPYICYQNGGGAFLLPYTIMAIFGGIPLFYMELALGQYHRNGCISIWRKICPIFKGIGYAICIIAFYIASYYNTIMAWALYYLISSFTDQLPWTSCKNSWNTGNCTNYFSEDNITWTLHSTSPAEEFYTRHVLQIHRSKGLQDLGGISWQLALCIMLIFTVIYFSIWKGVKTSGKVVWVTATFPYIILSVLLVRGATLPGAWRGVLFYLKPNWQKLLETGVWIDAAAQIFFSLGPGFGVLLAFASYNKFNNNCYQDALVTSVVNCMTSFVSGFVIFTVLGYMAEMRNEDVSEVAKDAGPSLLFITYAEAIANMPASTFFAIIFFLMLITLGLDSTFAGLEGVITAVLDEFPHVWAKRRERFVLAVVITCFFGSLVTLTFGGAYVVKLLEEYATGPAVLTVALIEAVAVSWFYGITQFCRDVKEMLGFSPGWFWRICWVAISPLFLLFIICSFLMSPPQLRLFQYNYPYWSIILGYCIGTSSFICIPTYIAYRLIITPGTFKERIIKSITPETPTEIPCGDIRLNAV
Assay: Displacement of [3H]citalopram from human recombinant SERT expressed in BacMam virus-transduced cells by scintillation proximity assay
Assay type: cell-based
Each entry below carries its reported Ki.
Numbers only here, please. The scale is nM.

molecule | Ki [nM]
Clc1ccc([C@]23CNC[C@H]2[C@@H]3COC2CCC2)cc1Cl (stereo in doubt) | 0.631

// Ki value for COC[C@@H]1[C@H]2CNC[C@]21c1ccc(Cl)c(Cl)c1 (stereo in doubt) : 25.7

Kindly note the recorded Ki for Clc1ccc([C@]23CNC[C@H]2[C@@H]3COC2CCCCC2)cc1Cl (racemic) , which is 1

---

Ki by entry:
Biological target: Sodium-dependent dopamine transporter (Homo sapiens, UniProt Q01959)
Sequence (Q01959 whole entry): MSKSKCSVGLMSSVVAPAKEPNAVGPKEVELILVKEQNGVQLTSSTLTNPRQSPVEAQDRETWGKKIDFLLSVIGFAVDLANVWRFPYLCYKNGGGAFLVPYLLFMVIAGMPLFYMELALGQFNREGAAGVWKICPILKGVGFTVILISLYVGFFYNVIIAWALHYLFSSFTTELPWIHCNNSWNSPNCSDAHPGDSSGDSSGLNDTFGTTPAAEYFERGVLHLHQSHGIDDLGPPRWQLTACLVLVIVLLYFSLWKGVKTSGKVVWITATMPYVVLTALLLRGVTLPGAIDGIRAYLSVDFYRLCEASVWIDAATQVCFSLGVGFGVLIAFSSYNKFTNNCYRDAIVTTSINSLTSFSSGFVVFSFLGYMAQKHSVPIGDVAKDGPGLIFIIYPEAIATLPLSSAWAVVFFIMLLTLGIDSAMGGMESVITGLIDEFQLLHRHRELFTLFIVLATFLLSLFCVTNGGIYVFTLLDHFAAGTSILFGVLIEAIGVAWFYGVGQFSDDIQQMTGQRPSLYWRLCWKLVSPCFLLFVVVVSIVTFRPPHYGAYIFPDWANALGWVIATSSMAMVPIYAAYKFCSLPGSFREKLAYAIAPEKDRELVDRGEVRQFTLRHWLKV
Test: Displacement of [3H]WIN-35428 from human recombinant DAT expressed in BacMam virus-transduced cells by scintillation proximity assay
Format: cell-based
Give the value in nM but do not write nM after it.

compound | Ki (nM)
FC(F)(F)COC[C@H]1[C@@H]2CNC[C@@]21c1ccc(Cl)c(Cl)c1 (stereo in doubt) | 50.1
CC(C)OCC[C@]1(c2ccc(Cl)c(Cl)c2)[C@@H]2CNC[C@@H]21 | 6.31

Lab entry: Sodium-dependent dopamine transporter (Homo sapiens, UniProt Q01959) assay, compound CSC[C@H]1[C@@H]2CNC[C@@]21c1ccc(Cl)c(Cl)c1 (relative stereo) , Ki = 39.8
